Data credit: paper PMC4884477

biological target: E. coli Hfq (Escherichia coli, UniProt P0A6X3 1-102); test: fluorescence anisotropy
Sequence (P0A6X3 whole entry): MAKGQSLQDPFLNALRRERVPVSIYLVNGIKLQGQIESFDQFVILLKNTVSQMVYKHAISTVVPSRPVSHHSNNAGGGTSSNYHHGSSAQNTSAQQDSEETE
Metric: pKd
Scale: pKd equals -log10([C]), with [C] in mol/L.

Consider GUGGUCAGUCGAGUGGCUUCCGUCCAUUUCGGACGUUUUUU (structured_RNA) [Cy3-mini-sRNA] . Its measured pKd is 8.57
